Each recorded value in this set is attributed to ChEMBL document CHEMBL1129660.

system: Staphylococcus aureus; assay: Antibacterial activity against Staphylococcus aureus ATCC 6538; type: functional
One threshold, 0.06 mg/L, splits the recorded MIC values: lower ones are yes (1), equal or higher ones are no (0).

Cc1c(N2CCNC(C)C2)c(N)cc2c(=O)c(C(=O)O)cn(C3CC3)c12 (stereo not given)
no (0)
Nc1cc2c(=O)c(C(=O)O)cn(C3CC3)c2cc1N1CCNCC1
no (0)
Cc1c(N2CC3CCC2CC3)c(N)cc2c(=O)c(C(=O)O)cn(C3CC3)c12
yes (1)
Cc1c(N2CCc3ccccc3C2)c(N)cc2c(=O)c(C(=O)O)cn(C3CC3)c12
yes (1)
CN1CCN(c2c(N)cc3c(=O)c(C(=O)O)cn(C4CC4)c3c2F)CC1
no (0)
Cc1c(N2CCC(C)CC2)c(N(C)C)cc2c(=O)c(C(=O)O)cn(C3CC3)c12
no (0)
CN1CCN(c2nc3c(cc2N)c(=O)c(C(=O)O)cn3C2CC2)CC1
no (0)
Cc1c(N2CCc3ccccc3C2)c([N+](=O)[O-])cc2c(=O)c(C(=O)O)cn(C3CC3)c12
no (0)
CC1CN(c2cc3c(cc2N)c(=O)c(C(=O)O)cn3C2CC2)CCN1 (stereo not given)
no (0)
CNc1cc2c(=O)c(C(=O)O)cn(C3CC3)c2c(C)c1N1CCC(C)CC1
no (0)
Nc1cc2c(=O)c(C(=O)O)cn(C3CC3)c2cc1N1CCc2ccccc2C1
no (0)
Cc1c(N2CC(C)CC(C)C2)c(N)cc2c(=O)c(C(=O)O)cn(C3CC3)c12 (stereo not given)
yes (1)
Cc1c(N2CC=CCC2)c(N)cc2c(=O)c(C(=O)O)cn(C3CC3)c12
no (0)
Cc1c(N2CCc3ccccc3C2)c(F)cc2c(=O)c(C(=O)O)cn(C3CC3)c12
yes (1)

###

Entries and their measured MIC follow.
tested on: Enterobacter cloacae; test: Antibacterial activity tested against Enterobacter cloacae OMNFI 174; type: functional
Reported Property: MIC (µg/mL)

CN1CCN(c2c(N)cc3c(=O)c(C(=O)O)cn(C4CC4)c3c2F)CC1
0.25
CN1CCN(c2cc3c(cc2N)c(=O)c(C(=O)O)cn3-c2ccc(F)cc2)CC1
4
CNc1cc2c(=O)c(C(=O)O)cn(C3CC3)c2c(C)c1N1CCC(C)CC1
64
Cc1c(N2CCN(C)CC2)c(F)cc2c(=O)c(C(=O)O)cn(C3CC3)c12
0.03
Cc1c(N2CCCC(CO)C2)c(N)cc2c(=O)c(C(=O)O)cn(C3CC3)c12 (stereo not given)
2
Cc1c(N2CCC2)c(N)cc2c(=O)c(C(=O)O)cn(C3CC3)c12
16
Cc1c(N2C[C@@H](C)O[C@@H](C)C2)c(N)cc2c(=O)c(C(=O)O)cn(C3CC3)c12
1
Cc1c(N2CCNC(C)C2)c(N)cc2c(=O)c(C(=O)O)cn(C3CC3)c12 (stereo not given)
0.125
Cc1c(N2CCN(C)CC2)c(N)cc2c(=O)c(C(=O)O)cn(C3CC3)c12
0.125
CN1CCN(c2nc3c(cc2N)c(=O)c(C(=O)O)cn3C2CC2)CC1
0.125

###

test system: Enterobacter cloacae; assay: Antibacterial activity tested against Enterobacter cloacae OMNFI 174; assay type: functional
Reported Property: log10 MIC (log10 of the value in mg/L)

Cc1c(N2CCc3ccccc3C2)c(N)cc2c(=O)c(C(=O)O)cn(C3CC3)c12
-0.60
Cc1c(N2CC(C)CC(C)C2)c(N)cc2c(=O)c(C(=O)O)cn(C3CC3)c12 (stereo not given)
0.30
Cc1c(N2CCCCCC2)c(N)cc2c(=O)c(C(=O)O)cn(C3CC3)c12
0.00
CC1CN(c2cc3c(cc2N)c(=O)c(C(=O)O)cn3C2CC2)CCN1 (stereo not given)
-0.60
Cc1c(N2CCc3ccccc3C2)c(F)cc2c(=O)c(C(=O)O)cn(C3CC3)c12
0.60
Cc1c(N2CCCCC2)c([N+](=O)[O-])cc2c(=O)c(C(=O)O)cn(C3CC3)c12
1.81
Cc1c(N2CCCCC2)c(F)cc2c(=O)c(C(=O)O)cn(C3CC3)c12
1.20
Nc1cc2c(=O)c(C(=O)O)cn(C3CC3)c2cc1N1CCCC1
0.90
Cc1c(N2CCC(C)CC2)c(N(C)C)cc2c(=O)c(C(=O)O)cn(C3CC3)c12
1.81
